Each recorded value in this set is attributed to patent US20260242735A1.

- systemName: human CD33 L35A (human, UniProt P20138 18-364)
- Sequence (P20138 18-364 L35A limits assumed): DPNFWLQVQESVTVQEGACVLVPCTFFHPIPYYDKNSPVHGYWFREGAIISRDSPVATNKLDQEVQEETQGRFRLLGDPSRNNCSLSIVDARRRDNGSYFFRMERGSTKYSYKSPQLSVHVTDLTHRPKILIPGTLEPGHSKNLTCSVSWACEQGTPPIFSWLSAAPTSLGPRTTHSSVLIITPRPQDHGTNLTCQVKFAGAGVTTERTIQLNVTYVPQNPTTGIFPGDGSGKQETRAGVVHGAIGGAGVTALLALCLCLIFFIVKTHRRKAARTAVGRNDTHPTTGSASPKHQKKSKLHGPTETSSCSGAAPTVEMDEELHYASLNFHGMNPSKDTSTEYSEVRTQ
- experimentalDetails: alanine scan, flow cytometry;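 note: HEK293-T cells transiently expressing single-residue alanine mutants of CD33 (alanine swapped to serine), antibody binding read by fluorescence in duplicate, background-subtracted, expressed relative to wild-type CD33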
parameterMeasured: Mean % WT Binding (% WT)
Give a bare numeral; the unit % WT is implied.

What the record says about Refmab #2 (antibody, V domains shown, Full-length format is human IgG1 Fc silent (PG-LALA); The alanine scan used IgG or Fab) VH: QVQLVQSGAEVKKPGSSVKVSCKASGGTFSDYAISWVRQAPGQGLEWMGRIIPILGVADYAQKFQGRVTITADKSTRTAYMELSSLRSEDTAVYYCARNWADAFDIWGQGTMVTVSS VL: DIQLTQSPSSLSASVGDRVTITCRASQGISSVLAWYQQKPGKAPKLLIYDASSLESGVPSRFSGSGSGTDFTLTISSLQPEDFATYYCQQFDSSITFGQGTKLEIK : Mean % WT Binding is 119

What the record says about Refmab #1 (antibody, V domains shown, Full-length format is human IgG1 (Absolute Antibody Ab00283-10.0); The alanine scan used IgG or Fab; also called hP67.6) VH: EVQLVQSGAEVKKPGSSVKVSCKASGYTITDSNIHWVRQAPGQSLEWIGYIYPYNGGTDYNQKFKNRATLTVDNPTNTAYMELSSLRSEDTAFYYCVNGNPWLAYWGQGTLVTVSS VL: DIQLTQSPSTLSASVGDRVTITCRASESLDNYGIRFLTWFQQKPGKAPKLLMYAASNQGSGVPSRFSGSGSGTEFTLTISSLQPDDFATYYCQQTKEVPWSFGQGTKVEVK : Mean % WT Binding is 89.1

What the record says about Refmab #3 (antibody, V domains shown, Full-length format is human IgG1 Fc silent (PG-LALA); The alanine scan used IgG or Fab) VH: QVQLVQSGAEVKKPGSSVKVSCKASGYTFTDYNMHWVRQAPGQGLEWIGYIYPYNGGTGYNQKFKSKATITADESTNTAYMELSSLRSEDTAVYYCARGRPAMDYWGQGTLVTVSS VL: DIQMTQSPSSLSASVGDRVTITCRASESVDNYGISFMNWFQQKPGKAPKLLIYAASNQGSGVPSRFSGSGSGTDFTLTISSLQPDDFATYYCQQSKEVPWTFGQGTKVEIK : Mean % WT Binding is 102

What the record says about Refmab #4 (antibody, V domains shown, Full-length format is human IgG1 Fc silent (PG-LALA); The alanine scan used IgG or Fab) VH: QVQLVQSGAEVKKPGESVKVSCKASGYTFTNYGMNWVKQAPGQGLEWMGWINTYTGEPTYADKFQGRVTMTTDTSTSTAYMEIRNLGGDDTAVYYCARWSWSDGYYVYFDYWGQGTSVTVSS VL: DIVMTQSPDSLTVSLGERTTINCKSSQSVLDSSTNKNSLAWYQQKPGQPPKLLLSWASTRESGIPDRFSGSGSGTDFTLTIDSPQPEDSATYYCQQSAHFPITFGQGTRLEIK : Mean % WT Binding is 94.5
